Test system: HCC-827
Experiment description: relative viability (nuclei count vs DMSO), 5 days (fraction); higher = more cells survive
Test settings: first compound 0.253 µM
Observable: relative viability
Answer with a number only.

What value of measured relative viability is listed for COc1nc(C)cnc1NS(=O)(=O)c1cccnc1-c1ccc(-c2nnco2)cc1 [Zibotentan] + Nc1nc2[nH]cc(CCc3ccc(C(=O)N[C@@H](CCC(=O)O)C(=O)O)cc3)c2c(=O)[nH]1 [Pemetrexed] (partner 0.2 µM) ?
0.272

// repeat for COc1nc(C)cnc1NS(=O)(=O)c1cccnc1-c1ccc(-c2nnco2)cc1 [Zibotentan] + CC(=O)c1c(C)c2cnc(Nc3ccc(N4CCNCC4)cn3)nc2n(C2CCCC2)c1=O [Palbociclib] (partner 0.5 µM) and report
0.49

Then what about the compound O=c1cc(-c2cccc3c2Sc2ccccc2S3)oc(N2CCOCC2)c1 + CCNC(=O)c1noc(-c2cc(C(C)C)c(O)cc2O)c1-c1ccc(CN2CCOCC2)cc1 [Luminespib] (partner 0.01 µM) ?
0.588

---

Test system: NCI-H1650
Experiment description: relative viability (nuclei count vs DMSO), 5 days (fraction); higher = more cells survive
Test settings: first compound 2.53 µM
Criterion: relative viability strictly less than 0.7. Met: label 1. Not met: label 0.

# count of solved cases: 3
[
  {
    "Compound": "COc1nc(C)cnc1NS(=O)(=O)c1cccnc1-c1ccc(-c2nnco2)cc1 [Zibotentan] + Cc1cc(Nc2cc(N3CCN(C)CC3)nc(Sc3ccc(NC(=O)C4CC4)cc3)n2)n[nH]1 [Tozasertib] (partner 0.1 µM)",
    "Class name": "label 1"
  },
  {
    "Compound": "O=c1cc(-c2cccc3c2Sc2ccccc2S3)oc(N2CCOCC2)c1 + CS(=O)(=O)N1CCN(Cc2cc3nc(-c4cccc5[nH]ncc45)nc(N4CCOCC4)c3s2)CC1 [Pictilisib] (partner 1 µM)",
    "Class name": "label 1"
  },
  {
    "Compound": "O=c1cc(-c2cccc3c2Sc2ccccc2S3)oc(N2CCOCC2)c1 + CS(=O)(=O)CCNCc1ccc(-c2ccc3ncnc(Nc4ccc(OCc5cccc(F)c5)c(Cl)c4)c3c2)o1 [Lapatinib] (partner 2 µM)",
    "Class name": "label 0"
  }
]

Quick check: does O=c1cc(-c2cccc3c2Sc2ccccc2S3)oc(N2CCOCC2)c1 + O=C(CCCCCCC(=O)Nc1ccccc1)NO [Vorinostat] (partner 1 µM) have relative viability under 0.7?
label 1

Try this compound next: O=c1cc(-c2cccc3c2Sc2ccccc2S3)oc(N2CCOCC2)c1 + N=C(N)NC(=N)NCCc1ccccc1 [Phenformin] (partner 250 µM)
label 1

---

This section presents compounds with their documented relative viability values.
System: NCI-H441
Experiment description: relative viability (nuclei count vs DMSO), 5 days (fraction); higher = more cells survive
Test settings: first compound 0.2 µM
Field format: numeric only.

// below: answered compounds
[
  {
    "Compound": "COCC1(CO)C(=O)C2CCN1CC2 (stereo not given) [PRIMA-1MET] + COc1cc2c(Oc3ccc(NC(=O)C4(C(=O)Nc5ccc(F)cc5)CC4)cc3F)ccnc2cc1OCCCN1CCOCC1 [Foretinib] (partner 0.25 µM)",
    "Meas value": 0.954
  },
  {
    "Compound": "COCC1(CO)C(=O)C2CCN1CC2 (stereo not given) [PRIMA-1MET] + NC(=O)Nc1cc(-c2cccc(F)c2)sc1C(=O)N[C@H]1CCCNC1 [AZD7762] (partner 0.2 µM)",
    "Meas value": 1.09
  }
]

# get_value(readout= relative viability, system= NCI-H441) for COCC1(CO)C(=O)C2CCN1CC2 (stereo not given) [PRIMA-1MET] + C[C@@H](Oc1cc(-c2cnn(C3CCNCC3)c2)cnc1N)c1c(Cl)ccc(F)c1Cl [Crizotinib] (partner 1 µM)
0.934

Repeat with COCC1(CO)C(=O)C2CCN1CC2 (stereo not given) [PRIMA-1MET] + N=C(N)NC(=N)NCCc1ccccc1 [Phenformin] (partner 250 µM)
0.872

Also check COCC1(CO)C(=O)C2CCN1CC2 (stereo not given) [PRIMA-1MET] + Nc1nc2[nH]cc(CCc3ccc(C(=O)N[C@@H](CCC(=O)O)C(=O)O)cc3)c2c(=O)[nH]1 [Pemetrexed] (partner 0.2 µM)
0.24
